experiment: Antiplatelet activity in citrated human platelet rich plasma assessed as inhibition of ADP-induced platelet aggregation incubated for 10 mins at 37 degC by light transmission aggregometry; format: functional
Residues, ends and D or L forms follow the SMILES beside them.
Hi there, I'd appreciate the recorded IC50 for every entry that follows.
Only the number, expressed in µM, is required.

// recorded IC50 for N=C(N)NCCC[C@@H]1NC(=O)[C@H](CS)NC(=O)[C@H](Cc2ccccc2)NC(=O)[C@H](CC(=O)O)NC(=O)CNC1=O (cyclo(RGDFC)) : 65

// recorded IC50 for CC(C)[C@@H]1NC(=O)[C@H](Cc2ccccc2)NC(=O)[C@H](CC(=O)O)NC(=O)CNC(=O)[C@H](CCCNC(=N)N)NC1=O : 72

// recorded IC50 for NC(N)=NCCC[C@H](N)C(=O)NCC(=O)N[C@@H](CC(=O)O)C(=O)O : 319

// recorded IC50 for NC(N)=NCCC[C@H](N)C(=O)NCC(=O)N[C@@H](CC(=O)O)C(=O)N[C@@H](CS)C(=O)O (H-RGDC-OH) : 322
